Test system: Bean
Test: Phytotoxicity test, bean
Format: in vivo
Set-up: key: 1: no perceptible injury; 2: intermediate degrees of injury based upon the number and extent to which leaves were injured; 3: intermediate degrees of injury based upon the number and extent to which leaves were injured; 4: intermediate degrees of injury based upon the number and extent to which leaves were injured; 5: the plant was dead
Settings: 2500 ppm spray, after ten days
Test Readout: POST-Emergent Herbicidal (phytotoxicity rating), Bean

Check out these entries, answers already filled in.
CN(C(=O)C[n+]1ccc(N(C)C)cc1)C(=O)Oc1cccc2c1OC(C)(C)C2	2
CCCCCCCCCCCCCCCCCC[N+](C)(C)CC(=O)N(C)C(=O)Oc1cccc2c1OC(C)(C)C2	2
CN(C(=O)C[N+](C)(C)C)C(=O)Oc1cccc2c1OC(C)(C)C2	1
CN(C(=O)C[N+]1(C)CCCC1)C(=O)Oc1cccc2c1OC(C)(C)C2	2

Give its POST-Emergent Herbicidal (phytotoxicity rating), Bean value. Item: CN(C(=O)C[n+]1ccn(C)c1)C(=O)Oc1cccc2c1OC(C)(C)C2
2

Quick one: POST-Emergent Herbicidal (phytotoxicity rating), Bean of CCCCCCCCCCCC[N+](C)(C)CC(=O)N(C)C(=O)Oc1cccc2c1OC(C)(C)C2 ?
2

* * *

Experiment: Water solubility (Table I)
Type: physicochemical
Conditions: 25° C.
Recorded solubility by entry

The examples below pair each entry with its known result.
CN(C(=O)C[N+]1(C)CCOCC1)C(=O)Oc1cccc2c1OC(C)(C)C2	140 mg/mL
CN(C(=O)C[N+](C)(C)C)C(=O)Oc1cccc2c1OC(C)(C)C2	570 mg/mL
CN(C(=O)C[N+]1(C)CCCC1)C(=O)Oc1cccc2c1OC(C)(C)C2	490 mg/mL
CN(C(=O)C[n+]1ccc(N(C)C)cc1)C(=O)Oc1cccc2c1OC(C)(C)C2	160 mg/mL
CCCCCCCCCCCCCCCCCC[N+](C)(C)CC(=O)N(C)C(=O)Oc1cccc2c1OC(C)(C)C2	> 250 mg/mL
CN(C(=O)C[n+]1ccn(C)c1)C(=O)Oc1cccc2c1OC(C)(C)C2	370 mg/mL

Would you kindly look at the next entry?
Which measured solubility value corresponds to CCCCCCCCCCCC[N+](C)(C)CC(=O)N(C)C(=O)Oc1cccc2c1OC(C)(C)C2 ?
> 250 mg/mL

Where do these numbers come from? They come from patent US4201786A.
